Tested on: U937 human histiocytic leukemia cell line
assay_method_text: Off-target effect (cell based assay), reported with assay 1
details: U-937, Table 1, assay 1, read-out: Off-target effect (cell based assay) IC50
Reported IC50 values are given for each entry in this list.
Record the value in µM, omitting the unit from your answer.

Worked cases, IC50 given:
structure_string	IC50, µM
Cc1ccc(Nc2nccc(N(C)c3ccc(NC(=O)Nc4cc(F)cc(C(F)(F)F)c4)cc3)n2)cc1C(=O)N1CCOCC1	2.28
Cc1ccc(Nc2nccc(N(C)c3ccc(NC(=O)Nc4ccc(OC(F)(F)F)cc4)cc3)n2)cc1C(N)=O	7.41
CNC(=O)c1cc(Nc2nccc(N(C)c3ccc(NC(=O)Nc4cc(Cl)cc(C(F)(F)F)c4)cc3)n2)ccc1C	2.05
Cc1ccc(Nc2nccc(N(C)c3ccc(NC(=O)Nc4ccc(OC(F)(F)F)cc4)cc3)n2)cc1CN(C)C	4.68

Please turn your attention to the following entry.
Value sought: IC50, system U937 human histiocytic leukemia cell line, item CNC(=O)c1cc(Nc2ncc(F)c(N(C)c3ccc(NC(=O)Nc4cc(C(F)(F)F)ccc4F)cc3)n2)ccc1C . Result: 0.103

---

System: U937
assay_method_text: Off-target effect (cell based assay), reported with assay 2
details: Homo sapiens, U-937; Table 2, assay 2; U937; read-out: Off-target effect (cell based assay) IC50 (U937)
property_label: IC50 (nM)
Record the value in nM, omitting the unit from your answer.

Worked cases, IC50 given:
structure_string	target	property_label	reading
CNC(=O)c1cc(Nc2nccc(N(C)c3ccc(NC(=O)Nc4cc(F)cc(C(F)(F)F)c4)cc3)n2)ccc1CN1CCN(C)CC1	U937	IC50	841
CNC(=O)c1cc(Nc2nccc(N(C)c3ccc(NC(=O)Nc4cc(C(F)(F)F)cc(C(F)(F)F)c4)cc3)n2)ccc1C	U937	IC50	1090
CNC(=O)c1cc(Nc2nccc(N(C)c3ccc(NC(=O)Nc4cccc(CC(F)(F)F)c4)cc3)n2)ccc1C	U937	IC50	231

Value sought: IC50, system U937, item Cc1ccc(Nc2nccc(N(C)c3ccc(NC(=O)Nc4cc(F)cc(C(F)(F)F)c4)cc3)n2)cc1N1CCNC1=O . Result: 513

Value sought: IC50, system U937, item CNC(=O)c1cc(Nc2nccc(N(C)c3ccc(NC(=O)Nc4cccc(OC(F)(F)F)c4)cc3)n2)ccc1C . Result: 419

Value sought: IC50, system U937, item Cc1ccc(Nc2nccc(N(C)c3ccc(NC(=O)Nc4cc(F)cc(C(F)(F)F)c4)cc3)n2)cc1C(=O)OCCO . Result: 2420

---

Test system: U937
assay_method_text: Off-target effect (cell based assay), reported with assay 2
details: Homo sapiens, U-937; Table 2, assay 2; U937; read-out: Off-target effect (cell based assay) IC50 (U937)
pIC50: −log10 of the molar value.
property_label: pIC50

Worked cases, pIC50 given:
structure_string	pIC50
Cc1ccc(Nc2nccc(N(C)c3ccc(NC(=O)Nc4ccc(OC(F)(F)F)cc4)cc3)n2)cc1N1CC2(CCOCC2)CC1=O	< 5.00
CN(c1ccc(NC(=O)Nc2ccc(OC(F)(F)F)cc2)cc1)c1ccnc(Nc2cccc(N3CC4(CCOCC4)CC3=O)c2)n1	< 5.00

Please turn your attention to the following entry.
Value sought: pIC50, system U937, item CNC(=O)c1cc(Nc2nccc(N(C)c3ccc(NC(=O)Nc4cc(C#N)cc(C(F)(F)F)c4)cc3)n2)ccc1C . Result: < 5.00
